The reported numbers originate from paper PMC9820167.

Measurement record for Muscarinic M1 (Homo sapiens, UniProt P11229); quantity recorded: pKi.
pKi: −log10 of the molar value.
recordedEndpoint: pKi

[[record]]
compound = "CCN(CCCNC(=O)c1ccc(-c2cccs2)cc1)CCNC(=O)c1cc(Br)cc(OC)c1OC"
testedon = "Muscarinic M1 (Homo sapiens, UniProt P11229)"
recordedendpoint = "pKi"
resultmodifier = "="
measurement = 5.63

[[record]]
compound = "CCN(CCCNC(=O)c1ccc(-c2ccncc2)cc1)CCNC(=O)c1cc(Br)cc(OC)c1OC [21c]"
testedon = "Muscarinic M1 (Homo sapiens, UniProt P11229)"
recordedendpoint = "pKi"
resultmodifier = "="
measurement = 5.47

[[record]]
compound = "CCN(CCCNC(=O)c1ccc(-c2ccsc2)cc1)CCNC(=O)c1cc(Br)cc(OC)c1OC [21g]"
testedon = "Muscarinic M1 (Homo sapiens, UniProt P11229)"
recordedendpoint = "pKi"
resultmodifier = "="
measurement = 5.46

[[record]]
compound = "CCN(CCCNC(=O)c1cc2ccccc2[nH]1)CCNC(=O)c1cc(Br)cc(OC)c1OC [21d]"
testedon = "Muscarinic M1 (Homo sapiens, UniProt P11229)"
recordedendpoint = "pKi"
resultmodifier = "<"
measurement = 5.00


====

Measured pKi values are reported for all entries that follow.
# testedOn: Muscarinic M5 (Homo sapiens, UniProt P08912)
# Sequence (P08912 whole entry): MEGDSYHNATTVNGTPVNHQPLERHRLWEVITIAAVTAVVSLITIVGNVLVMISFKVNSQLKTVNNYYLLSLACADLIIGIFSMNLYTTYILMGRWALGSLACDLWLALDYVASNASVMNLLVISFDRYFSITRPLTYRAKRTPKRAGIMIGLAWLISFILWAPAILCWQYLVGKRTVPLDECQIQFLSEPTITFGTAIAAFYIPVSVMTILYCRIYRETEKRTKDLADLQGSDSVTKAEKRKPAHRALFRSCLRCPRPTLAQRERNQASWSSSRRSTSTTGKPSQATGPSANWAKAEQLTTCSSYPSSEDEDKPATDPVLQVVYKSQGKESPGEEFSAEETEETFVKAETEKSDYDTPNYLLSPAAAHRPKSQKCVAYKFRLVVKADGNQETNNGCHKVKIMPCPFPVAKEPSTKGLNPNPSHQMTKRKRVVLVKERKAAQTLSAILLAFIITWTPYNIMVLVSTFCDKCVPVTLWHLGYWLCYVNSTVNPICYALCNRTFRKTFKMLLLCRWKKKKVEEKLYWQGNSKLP
pKi: −log10 of the molar value.
recordedEndpoint: pKi

[[record]]
compound = "CCN(CCCNC(=O)c1cc2ccccc2[nH]1)CCNC(=O)c1cc(Br)cc(OC)c1OC [21d]"
measurement = 5.37

[[record]]
compound = "CCN(CCCNC(=O)c1ccc(-c2ccncc2)cc1)CCNC(=O)c1cc(Br)cc(OC)c1OC [21c]"
measurement = 5.62

[[record]]
compound = "CCN(CCCNC(=O)c1ccc(-c2cccs2)cc1)CCNC(=O)c1cc(Br)cc(OC)c1OC"
measurement = 5.30


====

# collection of pKi values tested on UniProtKB P08172
# Sequence (P08172 whole entry): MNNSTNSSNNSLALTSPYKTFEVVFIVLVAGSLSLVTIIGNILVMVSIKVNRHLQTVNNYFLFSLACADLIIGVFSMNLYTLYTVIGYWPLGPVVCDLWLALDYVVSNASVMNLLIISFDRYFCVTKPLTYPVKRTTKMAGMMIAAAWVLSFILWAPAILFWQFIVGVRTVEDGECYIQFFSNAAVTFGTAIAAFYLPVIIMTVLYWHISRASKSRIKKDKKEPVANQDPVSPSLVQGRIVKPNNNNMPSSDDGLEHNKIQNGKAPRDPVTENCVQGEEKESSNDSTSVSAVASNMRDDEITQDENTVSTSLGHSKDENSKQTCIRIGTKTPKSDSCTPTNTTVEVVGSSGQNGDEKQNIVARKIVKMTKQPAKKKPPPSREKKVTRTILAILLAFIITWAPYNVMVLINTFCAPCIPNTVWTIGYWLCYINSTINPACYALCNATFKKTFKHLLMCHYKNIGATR
pKi: −log10 of the molar value.
recordedEndpoint: pKi

[[record]]
compound = "CCN(CCCNC(=O)c1cn2ccccc2n1)CCNC(=O)c1cc(Br)cc(OC)c1OC [21e]"
testedon = "UniProtKB P08172"
recordedendpoint = "pKi"
measurement = 5.02

[[record]]
compound = "CCN(CCCNC(=O)c1ccc(-c2ccncc2)cc1)CCNC(=O)c1cc(Br)cc(OC)c1OC [21c]"
testedon = "UniProtKB P08172"
recordedendpoint = "pKi"
measurement = 5.78

[[record]]
compound = "CCN(CCCNC(=O)c1cc2ccccc2n1C)CCNC(=O)c1cc(Br)cc(OC)c1OC [21j]"
testedon = "UniProtKB P08172"
recordedendpoint = "pKi"
measurement = 5.53

[[record]]
compound = "CCN(CCCNC(=O)c1ccc(-c2cccs2)cc1)CCNC(=O)c1cc(Br)cc(OC)c1OC"
testedon = "UniProtKB P08172"
recordedendpoint = "pKi"
measurement = 5.92

[[record]]
compound = "CCCN(CCCNC(=O)c1ccc(-c2cccs2)cc1)CCNC(=O)c1cc(Br)cc(OC)c1OC [20a]"
testedon = "UniProtKB P08172"
recordedendpoint = "pKi"
measurement = 5.31


====

# testedOn: Histamine H1 (Homo sapiens, UniProt P35367)
# Sequence (P35367 whole entry): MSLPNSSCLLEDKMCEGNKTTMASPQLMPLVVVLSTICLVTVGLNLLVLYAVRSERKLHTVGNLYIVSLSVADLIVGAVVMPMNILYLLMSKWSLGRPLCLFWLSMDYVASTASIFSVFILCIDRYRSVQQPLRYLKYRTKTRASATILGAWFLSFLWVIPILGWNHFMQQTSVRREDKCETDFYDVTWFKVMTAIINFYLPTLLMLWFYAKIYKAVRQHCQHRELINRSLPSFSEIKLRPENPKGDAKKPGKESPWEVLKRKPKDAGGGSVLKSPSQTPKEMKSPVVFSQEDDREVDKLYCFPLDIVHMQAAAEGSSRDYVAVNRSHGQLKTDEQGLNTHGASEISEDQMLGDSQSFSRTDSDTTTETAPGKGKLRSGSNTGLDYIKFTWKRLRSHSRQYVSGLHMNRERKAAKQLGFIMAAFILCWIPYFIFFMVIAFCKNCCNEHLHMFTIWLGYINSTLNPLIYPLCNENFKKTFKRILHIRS
The class of a record is decided solely by its measured Ki; consult 0 = under 100 nM, 1 = from 100 nM up to 1000 nM, 2 = 1000 nM and over

[[record]]
compound = "CCN(CCCNC(=O)c1cc2ccccc2[nH]1)CCNC(=O)c1cc(Br)cc(OC)c1OC [21d]"
assignedcategory = 0

[[record]]
compound = "CCN(CCCNC(=O)c1ccc(-c2ccncc2)cc1)CCNC(=O)c1cc(Br)cc(OC)c1OC [21c]"
assignedcategory = 1

[[record]]
compound = "CCN(CCCNC(=O)c1ccsc1)CCNC(=O)c1cc(Br)cc(OC)c1OC [21i]"
assignedcategory = 0

[[record]]
compound = "CCN(CCCNC(=O)c1ccc(-c2cccs2)cc1)CCNC(=O)c1cc(Br)cc(OC)c1OC"
assignedcategory = 2

[[record]]
compound = "CCN(CCCNC(=O)c1ccc2ccccc2c1)CCNC(=O)c1cc(Br)cc(OC)c1OC [21a]"
assignedcategory = 2

[[record]]
compound = "CCCN(CCCNC(=O)c1ccc(-c2cccs2)cc1)CCNC(=O)c1cc(Br)cc(OC)c1OC [20a]"
assignedcategory = 2

[[record]]
compound = "CCN(CCCNC(=O)c1cn2ccccc2n1)CCNC(=O)c1cc(Br)cc(OC)c1OC [21e]"
assignedcategory = 1

[[record]]
compound = "CCN(CCCNC(=O)c1cc2ccccc2n1C)CCNC(=O)c1cc(Br)cc(OC)c1OC [21j]"
assignedcategory = 2


====

The following compounds are shown together with reported Ki values.
# testedOn: human D3 receptors (Homo sapiens, UniProt P35462)
# Sequence (P35462 whole entry): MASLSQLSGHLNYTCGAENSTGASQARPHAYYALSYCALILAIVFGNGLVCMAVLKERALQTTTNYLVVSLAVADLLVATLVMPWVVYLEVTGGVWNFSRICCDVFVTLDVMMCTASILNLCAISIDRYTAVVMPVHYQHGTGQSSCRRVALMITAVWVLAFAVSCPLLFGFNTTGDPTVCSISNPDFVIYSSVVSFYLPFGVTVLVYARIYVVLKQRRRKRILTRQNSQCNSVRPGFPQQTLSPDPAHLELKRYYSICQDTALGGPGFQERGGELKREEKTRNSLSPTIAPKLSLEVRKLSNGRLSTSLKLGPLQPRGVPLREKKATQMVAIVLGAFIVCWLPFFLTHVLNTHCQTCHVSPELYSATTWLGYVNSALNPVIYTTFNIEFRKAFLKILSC
# measurementProtocol: Radioligand binding assay with [125I]IABN, D3 receptor
# Parameters: expressed in transfected cells; host or cells: HEK293
# settings: [125I]IABN, D3 receptors expressed in HEK cells; mean ± SEM, three experiments; HCl salts; read-out: Ki ± SEM (nM) D3
recordedEndpoint: Ki (nM)

[[record]]
compound = "C=CCN(CCCNC(=O)c1ccc(-c2cccs2)cc1)CCNC(=O)c1cc(Br)cc(OC)c1OC [20b]"
measurement = 5.8

[[record]]
compound = "CCN(CCCNC(=O)c1cc2ccccc2n1C)CCNC(=O)c1cc(Br)cc(OC)c1OC [21j]"
measurement = 3.1

[[record]]
compound = "CCN(CCCCCN(C)C)CCNC(=O)c1cc(CCCF)cc(OC)c1OC"
measurement = 1240


====

# testedOn: UniProtKB P35462
# measurementProtocol: Radioligand binding assay with [125I]IABN, D3 receptor
# Parameters: expressed in transfected cells; host or cells: HEK293
# settings: Ki ± SEM (nM) D3, [125I]IABN, D3 receptors expressed in HEK cells; mean ± SEM, three experiments; HCl salts
recordedEndpoint: Ki (nM)

[[record]]
molecule = "CCN(CCCNC(=O)c1ccc(-c2cccs2)cc1)CCNC(=O)c1cc(Br)cc(OC)c1OC [9a]"
unitssymbol = "nM"
measurement = 1


====

# testedOn: human D3 receptors (Homo sapiens, UniProt P35462)
# measurementProtocol: β-arrestin recruitment assay (antagonist mode, competition with dopamine)
# Assay type: cell-based
# Parameters: expressed in transfected cells
recordedEndpoint: IC50

[[record]]
smilesstr = "CCN(CCCNC(=O)c1ccc(-c2cccs2)cc1)CCNC(=O)c1cc(Br)cc(OC)c1OC"
testedon = "human D3 receptors (Homo sapiens, UniProt P35462)"
recordedendpoint = "IC50"
measurement = "0.014 µM"


====

# testedOn: Serotonin 5-HT7A (Homo sapiens)
# Sequence (P34969 1-445 isoform P34969-2): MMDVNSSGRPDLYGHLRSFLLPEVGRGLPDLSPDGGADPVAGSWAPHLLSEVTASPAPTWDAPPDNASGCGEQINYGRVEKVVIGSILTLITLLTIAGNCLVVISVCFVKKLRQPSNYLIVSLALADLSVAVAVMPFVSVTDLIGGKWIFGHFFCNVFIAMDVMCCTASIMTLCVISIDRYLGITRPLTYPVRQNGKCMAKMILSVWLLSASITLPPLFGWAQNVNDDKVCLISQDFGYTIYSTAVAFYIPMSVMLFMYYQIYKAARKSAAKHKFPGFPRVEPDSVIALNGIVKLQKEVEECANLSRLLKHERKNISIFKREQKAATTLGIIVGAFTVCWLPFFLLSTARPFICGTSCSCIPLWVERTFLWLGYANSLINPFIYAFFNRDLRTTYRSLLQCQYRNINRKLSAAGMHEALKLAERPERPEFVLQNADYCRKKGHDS
pKi: −log10 of the molar value.
recordedEndpoint: pKi

[[record]]
compound = "CCN(CCCNC(=O)c1ccc(-c2ccsc2)cc1)CCNC(=O)c1cc(Br)cc(OC)c1OC [21g]"
measurement = 5.65


====

# testedOn: Opioid DOR (Homo sapiens)
# Construct: Psychoactive Drug Screening Program (PDSP)
# Sequence (P41143 whole entry): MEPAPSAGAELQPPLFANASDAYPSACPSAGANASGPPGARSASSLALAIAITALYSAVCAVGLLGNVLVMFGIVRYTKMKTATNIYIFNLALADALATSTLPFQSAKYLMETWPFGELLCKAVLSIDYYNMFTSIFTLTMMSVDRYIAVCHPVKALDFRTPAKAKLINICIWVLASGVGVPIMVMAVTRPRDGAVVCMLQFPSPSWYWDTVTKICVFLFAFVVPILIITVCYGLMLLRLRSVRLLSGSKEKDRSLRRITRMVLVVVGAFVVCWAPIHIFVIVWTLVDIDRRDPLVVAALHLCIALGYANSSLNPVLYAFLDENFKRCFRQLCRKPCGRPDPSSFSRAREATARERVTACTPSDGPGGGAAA
# measurementProtocol: PDSP binding screen
# settings: read-out: Ki (nM) or % inhibition at 10 µM: DOR
The compounds listed here are annotated with their inhibition at 10 µM.
recordedEndpoint: inhibition at 10 µM

[[record]]
compound = "CCN(CCCNC(=O)c1cc2ccccc2[nH]1)CCNC(=O)c1cc(Br)cc(OC)c1OC [21d]"
measurement = "< 50%"

[[record]]
compound = "CCN(CCCNC(=O)c1cn2ccccc2n1)CCNC(=O)c1cc(Br)cc(OC)c1OC [21e]"
measurement = "< 50%"

[[record]]
compound = "CCN(CCCNC(=O)c1cc2ccccc2n1C)CCNC(=O)c1cc(Br)cc(OC)c1OC [21j]"
measurement = "< 50%"

[[record]]
compound = "CCN(CCCNC(=O)c1ccc(-c2cccs2)cc1)CCNC(=O)c1cc(Br)cc(OC)c1OC [9a]"
measurement = "< 50%"

[[record]]
compound = "CCN(CCCNC(=O)c1ccc2ccccc2c1)CCNC(=O)c1cc(Br)cc(OC)c1OC [21a]"
measurement = "< 50%"

[[record]]
compound = "CCCN(CCCNC(=O)c1ccc(-c2cccs2)cc1)CCNC(=O)c1cc(Br)cc(OC)c1OC [20a]"
measurement = "< 50%"

[[record]]
compound = "CCN(CCCNC(=O)c1ccc(-c2ccsc2)cc1)CCNC(=O)c1cc(Br)cc(OC)c1OC [21g]"
measurement = "< 50%"


====

# testedOn: Adrenergic alpha2B (Homo sapiens, UniProt P18089)
# Sequence (P18089 whole entry): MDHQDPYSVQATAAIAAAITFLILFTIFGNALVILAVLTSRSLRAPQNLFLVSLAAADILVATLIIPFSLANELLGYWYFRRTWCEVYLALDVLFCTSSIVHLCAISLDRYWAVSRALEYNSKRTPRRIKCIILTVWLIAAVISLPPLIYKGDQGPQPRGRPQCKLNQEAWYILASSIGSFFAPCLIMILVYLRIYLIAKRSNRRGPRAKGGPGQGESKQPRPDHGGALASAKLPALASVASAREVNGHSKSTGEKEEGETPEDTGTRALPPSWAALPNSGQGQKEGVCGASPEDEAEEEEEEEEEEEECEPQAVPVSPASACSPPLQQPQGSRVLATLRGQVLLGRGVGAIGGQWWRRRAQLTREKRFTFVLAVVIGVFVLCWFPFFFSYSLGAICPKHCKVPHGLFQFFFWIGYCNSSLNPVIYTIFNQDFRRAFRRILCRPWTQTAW
// values below are reported Ki
recordedEndpoint: Ki

[[record]]
molecule = "CCN(CCCNC(=O)c1ccc(-c2cccs2)cc1)CCNC(=O)c1cc(Br)cc(OC)c1OC"
measurement = "235 nM"

[[record]]
molecule = "CCN(CCCNC(=O)c1ccsc1)CCNC(=O)c1cc(Br)cc(OC)c1OC [21i]"
measurement = "2950 nM"

[[record]]
molecule = "CCN(CCCNC(=O)c1cn2ccccc2n1)CCNC(=O)c1cc(Br)cc(OC)c1OC [21e]"
measurement = "2830 nM"

[[record]]
molecule = "CCCN(CCCNC(=O)c1ccc(-c2cccs2)cc1)CCNC(=O)c1cc(Br)cc(OC)c1OC [20a]"
measurement = "672 nM"

[[record]]
molecule = "CCN(CCCNC(=O)c1cc2ccccc2[nH]1)CCNC(=O)c1cc(Br)cc(OC)c1OC [21d]"
measurement = "386 nM"

